Every entry's value here was drawn from patent US20090227602A1.

Give IC50 for every item shown.
# Test system: lipopolysaccharide-stimulated release of TNFα from human peripheral blood mononuclear cells (PBMC)
# assay text: Whole cell LPS-stimulated TNF-α release assay
# Type: cell-based
# measurement parameters: LPS-stimulated human PBMC; read-out: TNFα Release IC50
Where a name gives a salt, the structure may show the parent alone.
Give bare numbers, in µM.

Solved cases (3 shown):
INSERT INTO results (molecule, readout, readout_number) VALUES
  ('CC(C)c1nc(-c2ccc(F)cc2)c(-c2ccnc(Nc3ccccc3)n2)n1/C=C/[C@@H]1C[C@@H](O)CC(=O)O1 (racemic)', 'IC50', 19),
  ('CC(C)(C)c1nc(-c2ccc(F)cc2)c(-c2ccncc2)n1/C=C/[C@@H]1C[C@@H](O)CC(=O)O1 (racemic)', 'IC50', 190),
  ('CC(C)(C)c1nc(-c2ccc(F)cc2)c(-c2ccncc2)n1/C=C/[C@@H](O)C[C@@H](O)CC(=O)O (racemic) [Example 33, sodium salt]', 'IC50', 230);

Note: attention shifts to another entry.
Fill in IC50 for record O=C1C[C@H](O)C[C@@H](CCn2c(-c3ccccc3)nc(-c3ccc(F)cc3)c2-c2ccncn2)O1
26
